Source listed as ChEMBL document CHEMBL1141301.

# Test system: Vero
# Assay Remarks: Cytotoxicity against african green monkey Vero cells
# Assay type: cell-based
# Test Parameters: Chlorocebus sabaeus
Property Measured: pIC50
One number for each entry, as −log10 of the molar value.

Worked examples, 3 molecules total:
COc1ccc2c(c1OC)[C@H](CC(C)=O)N(C)c1c-2ccc2cc(O)c(O)cc12 [LUCIDAMINE A] :: 4.94
COc1ccc2c(c1OC)[C@H](CC(C)=O)N(C)c1c-2ccc2cc3c(cc12)OCO3 :: 4.82
N=C(N)c1ccc(OCCCCCOc2ccc(C(=N)N)cc2)cc1 [PENTAMIDINE] :: 4.86

Working through the 2 molecules below one at a time, give pIC50 for each.
1. COc1ccc2c(c1OC)CN(C)c1c-2ccc2cc3c(cc12)OCO3 [DIHYDROCHELERYTHRINE]
2. C=CC(C)(C)c1c(O)c(O)c(C(C)(C)C=C)c2c3c(ccc12)-c1ccc(OC)c(OC)c1[C@H](CC(C)=O)N3C [LUCIDAMINE B]

OUTPUT:
1: 4.45; 2: 4.76

---

# Test system: RAW
# Assay Remarks: Cytotoxicity against mouse RAW cells
# Format: cell-based
Property Measured: Activity

COc1ccc2c(c1OC)[C@H](CC(C)=O)N(C)c1c-2ccc2cc(O)c(O)cc12 :: Toxic
C=CC(C)(C)c1c(O)c(O)c(C(C)(C)C=C)c2c3c(ccc12)-c1ccc(OC)c(OC)c1[C@H](CC(C)=O)N3C :: Toxic
CC(C)CNC(=O)/C=C/c1ccc2c(c1)OCO2 [FOGARAMIDE] :: Non-toxic
c1cc2c(cc1[C@H]1OC[C@H]3[C@@H]1CO[C@@H]3c1ccc3c(c1)OCO3)OCO2 :: Non-toxic

---

# Tested on: Leishmania donovani
# Assay Remarks: Antileishmanial activity against Leishmania donovani promastigotes at 100 uM
# Format: functional
Property Measured: inhibition at 100 µM (%)
Answers are plain numbers, in %.

Would you please look over these solved cases?
COc1ccc2c(c1OC)[C@H](CC(C)=O)N(C)c1c-2ccc2cc(O)c(O)cc12 :: 100
COc1ccc2c(c1OC)CN(C)c1c-2ccc2cc3c(cc12)OCO3 [DIHYDROCHELERYTHRINE] :: 100
COc1ccc2c(c1OC)[C@H](CC(C)=O)N(C)c1c-2ccc2cc3c(cc12)OCO3 :: 100

Turning now to a further record.
INPUT: Sample C=CC(C)(C)c1c(O)c(O)c(C(C)(C)C=C)c2c3c(ccc12)-c1ccc(OC)c(OC)c1[C@H](CC(C)=O)N3C — what was its inhibition at 100 µM?
OUTPUT: 64
